experiment: Pharmacokinetic study of Motor1.ABZ, IV route (plasma, HPLC); conditions: Swiss Webster, mouse, in vivo, iv, plasma concentration; t = 2 h; individual mice
property_label: concentration at 2 h (ng/mL)
Write the value in ng/mL as a bare number.

According to the records, this compound CCC[S+]([O-])c1ccc2[nH]c(NC(=O)OC)nc2c1 (stereo not shown) [ABZSO, albendazole sulfoxide] displays concentration at 2 h of 1590

----------
assay: Pharmacokinetic study of Motor1.ABZ, IV route (plasma, HPLC); settings: Swiss Webster, mouse, in vivo, iv, plasma concentration; t = 5 min; individual mice (duplicates a, b)
property_label: concentration at 5 min (ng/mL)
Number only, in ng/mL; omit the unit.

molecule CCC[S+]([O-])c1ccc2[nH]c(NC(=O)OC)nc2c1 (stereo not shown) [ABZSO, albendazole sulfoxide] , concentration at 5 min observed: 2880

----------
experiment: Pharmacokinetic study of Motor1.ABZ, IV route (plasma, HPLC); conditions: Swiss Webster, mouse, in vivo, iv, plasma concentration; t = 30 min; individual mice
property_label: concentration at 30 min (ng/mL)
A number alone suffices; assume ng/mL.

Entry CCC[S+]([O-])c1ccc2[nH]c(NC(=O)OC)nc2c1 (stereo not shown) [ABZSO, albendazole sulfoxide] , concentration at 30 min reported as 3960

----------
assay: in vivo; conditions: Swiss Webster, mouse, iv, plasma concentration
property_label: concentration at 15 min (ng/mL)
The reply should be a number in ng/mL, with the unit left off.

Form: molecule = CCCSc1ccc2nc(NC(=O)OC)[nH]c2c1 ; concentration at 15 min = 606

----------
experiment: Pharmacokinetic study of Motor1.ABZ, IV route (plasma, HPLC); conditions: Swiss Webster, mouse, in vivo, iv, plasma concentration; t = 15 min; individual mice
property_label: concentration at 15 min (ng/mL)
Quick note: give the figure in ng/mL, leave out the unit.

Sure, the documented concentration at 15 min for CCC[S+]([O-])c1ccc2[nH]c(NC(=O)OC)nc2c1 (stereo not shown) [ABZSO, albendazole sulfoxide] is 3490

----------
test: Pharmacokinetic study of Motor1.ABZ, IP route (plasma, HPLC); settings: Swiss Webster, mouse, in vivo, ip, plasma concentration; t = 16 h; individual mice
property_label: concentration at 16 h (ng/mL)
Response body: numeric value in ng/mL, unit text excluded.

Form field concentration at 16 h, entry CCC[S+]([O-])c1ccc2[nH]c(NC(=O)OC)nc2c1 (stereo not shown) [ABZSO, albendazole sulfoxide] : 44

----------
assay: Pharmacokinetic study of Motor1.ABZ, IV route (plasma, HPLC); conditions: Swiss Webster, mouse, in vivo, iv, plasma concentration; t = 4 h; individual mice
property_label: concentration at 4 h (µg/mL)
Give a bare numeral; the unit µg/mL is implied.

For CCC[S+]([O-])c1ccc2[nH]c(NC(=O)OC)nc2c1 (stereo not shown) [ABZSO, albendazole sulfoxide] the compound record lists concentration at 4 h as 0.614
